All values here come from patent US7648983B2.

For each of the molecules below, state its IC50.
target: beta-secretase (BACE) in primary cortical neurons from PDAPP transgenic embryonic mice (Mus musculus); construct: endogenous in cells; host or cells: primary cortical neurons from Embryonic Day 16 PDAPP transgenic mouse embryos; assay: PDAPP primary neuronal assay (Abeta ELISA); assay type: cell-based; conditions: Table 28; Abeta 1-42 in conditioned media, 24 h; read-out: PDAPP Neuron A-beta (1-42) ELISA IC50
Sequence (P56818 46-501): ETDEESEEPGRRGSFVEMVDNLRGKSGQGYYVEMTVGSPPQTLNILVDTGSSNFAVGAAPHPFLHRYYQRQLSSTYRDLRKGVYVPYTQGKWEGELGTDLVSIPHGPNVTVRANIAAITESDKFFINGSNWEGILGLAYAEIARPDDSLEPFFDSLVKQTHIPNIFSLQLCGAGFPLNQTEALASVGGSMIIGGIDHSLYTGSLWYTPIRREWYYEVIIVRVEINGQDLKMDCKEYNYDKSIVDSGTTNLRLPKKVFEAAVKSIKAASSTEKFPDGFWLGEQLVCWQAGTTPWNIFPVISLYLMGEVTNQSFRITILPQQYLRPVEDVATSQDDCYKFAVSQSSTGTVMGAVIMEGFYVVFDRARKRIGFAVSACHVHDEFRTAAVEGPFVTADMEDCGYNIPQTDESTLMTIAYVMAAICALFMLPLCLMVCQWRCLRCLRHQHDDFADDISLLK
Where a name gives a salt, the structure may show the parent alone.
Numeric only. Scale: nM

Prompt: Consider the molecule COc1cncc(-c2cccc([C@]3(C)CCSC(N)=N3)c2)c1.Cl.Cl [Example 19, dihydrochloride] and give its recorded IC50.
Completion: 214

Prompt: Consider the molecule C[C@@]1(c2ccc(F)c(-c3cnccn3)c2)CCSC(N)=N1 [Example 12, dihydrochloride] and give its recorded IC50.
Completion: 648

Prompt: Consider the molecule `CC1(C)C[C@@](C)(c2ccc(F)c(-c3cncnc3)c2)N=C(N)S1` and give its recorded IC50.
Completion: 429
